test: Non-specific binding (NSB) of drugs to ultrafiltration membrane filter, regenerated cellulose (Millipore Ultrafree-MC UFC 3LGC00, 10 k NMWL); type: physicochemical; conditions: pretreatment 2% benzalkonium chloride; drug 10 uM; regenerated cellulose
Examples of compounds with documented NSB (%) 2% BAK follow.
Just the number please, in %, no unit attached.

Answered cases to consult:
Compound: COc1ccc(CCN(C)CCCC(C#N)(c2ccc(OC)c(OC)c2)C(C)C)cc1OC (stereo not shown) [Verapamil]
NSB (%) 2% BAK: 25
--
Compound: C[C@]12CCC(=O)C=C1CC[C@@H]1[C@@H]2[C@@H](O)C[C@@]2(C)[C@H]1CC[C@]2(O)C(=O)CO [Hydrocortisone]
NSB (%) 2% BAK: 16
--
Compound: CC[C@]1(O)C[C@@H]2CN(CCc3c([nH]c4ccccc34)[C@@](C(=O)OC)(c3cc4c(cc3OC)N(C)[C@H]3[C@@](O)(C(=O)OC)[C@H](OC(C)=O)[C@]5(CC)C=CCN6CC[C@]43[C@@H]65)C2)C1 [Vinblastine]
NSB (%) 2% BAK: 68

Here is the next item to consider.
Query: Field request: NSB (%) 2% BAK | item: CC(C)NCC(O)COc1cccc2ccccc12 (stereo not shown) [Propranolol]
Result: 5
